# Test system: Staphylococcus aureus
# ASSAY_NOTES: Antibacterial activity against Staphylococcus aureus RN4220 assessed as inhibition of microbial growth
# Type: functional
Exercise: state measured MIC for each of the molecules provided.
One number for each entry, in µg/mL.

Provide MIC for all items below, preserving their order.
1. O=C1C=CC[C@@H]([C@H](O)[C@@H](c2ccccc2)c2c(O)cc(O)c3c2O[C@H](c2ccccc2)CC3=O)O1
2. CN[C@@H]1[C@H](O[C@H]2[C@H](O[C@H]3[C@H](O)[C@@H](O)[C@H](N=C(N)N)[C@@H](O)[C@@H]3N=C(N)N)O[C@@H](C)[C@]2(O)C=O)O[C@@H](CO)[C@H](O)[C@H]1O
3. O=C1C=CC[C@H]([C@@H](O)[C@H](c2ccccc2)c2c(O)cc3c(c2O)C(=O)C[C@@H](c2ccccc2)O3)O1
4. O=C1C=CC[C@@H]([C@@H](O)[C@@H](c2ccccc2)c2c(O)cc3c(c2O)C(=O)C[C@@H](c2ccccc2)O3)O1

OUTPUT:
[64, 32, 64, 64]
